# Tested on: 379773-124-R-J2-PDC complex spheroids, viability % test/control;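 further: compound exposure lasted seven days before the viability readout; 100% = DMSO vehicle control wells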
# MEASUREMENT DESCRIPTION: Anticancer human tumor 379773-124-R-J2-PDC patient-derived endometrial carcinoma cell line growth inhibition [CLK]
# RUN PARAMETERS: second compound 0.0316 µM; first compound 1 µM; active compounds read low
This listing pairs compounds with measured viability, T/C.
Hi! Could you send only the number? It should be in %, unit omitted.

query: // viability, T/C lookup, key: CC(Nc1ccc2c(c1)OCCn1cc(N3C(=O)OCC3C(F)F)nc1-2)C(N)=O (stereo not given) + CN1CCN(c2cc(C(=O)Nc3cc4cc(-c5cnn(C)c5)ccc4cn3)ccn2)CC1
result: 89.3
